Entries annotated with measured Cmax
method.notes: Cmax in CD-1 mouse at 5 mg/kg, ip administered as single dose
Type: ADME, organism-based
Parameters: dose 5 mg/kg, route intraperitoneal
conditions.used: in vivo
Answer format reminder: number followed by unit.

Below, each entry is followed by its recorded Cmax result.
# molecule, reading
data = [
    ("O=C1N(CCCCCOc2ccc(-c3ccc(Cl)cc3)cc2)CCN1c1ccncc1", "453 nM"),
    ("O=C1N(CCCCC2CCc3cc(-c4ccc(Cl)cc4)ccc3O2)CCN1c1ccncc1 (configuration not stated)", "3360 nM"),
    ("CCO/N=C/c1ccc(OCCCCCN2CCN(c3ccnc(N)c3)S2(=O)=O)cc1", "1440 nM"),
    ("O=S1(=O)N(CCCCCOc2ccc(-c3ccc(Cl)cc3)cc2)CCN1c1ccncc1", "682 nM"),
    ("CCO/N=C/c1ccc(OCCC(C)CCN2CCN(c3ccnc(N)c3)C2=O)cc1 (configuration not stated)", "1560 nM"),
    ("CCO/N=C1\\CCc2cc(OCCCCCN3CCN(c4ccnc(N)c4)S3(=O)=O)ccc21", "2150 nM"),
]

Okay, next one:
State its Cmax for this molecule: `O=C1CN(c2ccncc2)CCN1CCCCCOc1ccc(-c2ccc(Cl)cc2)cc1`
1260 nM

====

method.notes: […] bioavailability in CD-1 mouse at 5 mg/kg administered as single dose
Format: ADME, organism-based
conditions.used: in vivo, po
measured.property: bioavailability

Complete the entry with bioavailability for `O=S1(=O)N(CCCCCOc2ccc(-c3ccc(Cl)cc3)cc2)CCN1c1ccncc1`
43%

====

method.notes: Elimination half life in CD-1 mouse at 2 mg/kg, iv administered as single dose
Assay type: ADME, organism-based
conditions.used: in vivo, read-out: beta t1/2 (converted)
half-life reference
Entry rule: numbers only, all in min.

Example entries begin here.
# compound, half-life (min)
records = [
    ("O=C1N(CCCCC2CCc3cc(-c4ccc(Cl)cc4)ccc3O2)CCN1c1ccncc1 (configuration not stated)", 300),
    ("O=C1CN(c2ccncc2)CCN1CCCCCOc1ccc(-c2ccc(Cl)cc2)cc1", 360),
    ("CCO/N=C/c1ccc(OCCCCCN2CCN(c3ccnc(N)c3)S2(=O)=O)cc1", 96),
    ("O=S1(=O)N(CCCCCOc2ccc(-c3ccc(Cl)cc3)cc2)CCN1c1ccncc1", 360),
    ("CCO/N=C/c1ccc(OCCC(C)CCN2CCN(c3ccnc(N)c3)C2=O)cc1 (configuration not stated)", 18),
    ("CCO/N=C1\\CCc2cc(OCCCCCN3CCN(c4ccnc(N)c4)S3(=O)=O)ccc21", 90),
]

// next entry
Note half-life for the compound shown: `O=C1N(CCCCCOc2ccc(-c3ccc(Cl)cc3)cc2)CCN1c1ccncc1`
240
